Entries and their EC50
test: C. albicans growth with fluconazole, confirmation, fluorescence, retest (AID 2467); format: functional, cell-based
Calls of active or inactive are those of the source.

Examples with answers:
sample_smiles=Cn1cc(/C=C/c2cc[n+](C)cc2)c2cc(Cl)ccc21 result="1290 nM (active)"
sample_smiles=O=[N+]([O-])c1cc(CN2CCN(c3ccccc3)CC2)c(O)c2ncccc12 result="201 nM (active)"
sample_smiles=Cc1cc(Sc2ncnc(N)c2[N+](=O)[O-])ncn1 result="580 nM (active)"
sample_smiles=COc1cc(C(=O)Oc2c(CN3CCOCC3)cc(Cl)c3cccnc23)cc(OC)c1OC result="4150 nM (active)"
sample_smiles=Nc1ccc(Oc2cccc(Oc3ccc(N)cc3)c2)cc1 result="> 38000 nM (not active)"

Can you look up the measured EC50 of COc1ccc(/C=N/OCC(=O)Nc2nc3ccccc3s2)cc1 for me? 4970 nM (active)

* * *

assay: inhibitors of firefly luciferase expression or activity, dose response, H4 neuroglioma cells, luminescence (AID 1990); type: functional, cell-based
Active and inactive are the calls of the source.
Entries and their EC50

Examples with answers:
molecule="CSc1nc2c(c(=O)n1Cc1ccccc1)SC(C)C2 (stereo not drawn)" endpoint_label=EC50 result="25.7 µM (active)"
molecule=C=CCSc1nccc(-c2nn(-c3ccc(C)cc3)ccc2=O)n1 endpoint_label=EC50 result="9.46 µM (active)"
molecule=CC(=O)NNC(=O)c1csc(Cc2c(Cl)sc3ccc(Cl)cc23)n1 endpoint_label=EC50 result="11.5 µM (active)"
molecule=COc1ccccc1Nc1nc(NCCO)nc(N)c1[N+](=O)[O-] endpoint_label=EC50 result="10.9 µM (active)"
molecule=C=CCN1CCN(C(=O)CCCc2ccccc2)CC1 endpoint_label=EC50 result="7.4 µM (inconclusive)"
molecule=Cc1ccc(N2C(=O)/C(=C\Nc3cc(C)on3)c3ccccc3C2=O)c(C)c1 endpoint_label=EC50 result="> 120 µM (not active)"
molecule=COc1ccccc1N1CCN(C(=O)c2ccc3[nH]c(C)c(C)c3c2)CC1 endpoint_label=EC50 result="3.53 µM (active)"

Turning to the following molecule.
Can you look up the measured EC50 of C=CCn1c(SCC(=O)N2CCN(c3ccccc3)CC2)nc2c3ccccc3nc-2c1O for me? > 120 µM (not active)

* * *

Entries and their AC50
target: Histone-lysine N-methyltransferase NSD2 (Homo sapiens); assay type: biochemical
Sequence (O96028 whole entry): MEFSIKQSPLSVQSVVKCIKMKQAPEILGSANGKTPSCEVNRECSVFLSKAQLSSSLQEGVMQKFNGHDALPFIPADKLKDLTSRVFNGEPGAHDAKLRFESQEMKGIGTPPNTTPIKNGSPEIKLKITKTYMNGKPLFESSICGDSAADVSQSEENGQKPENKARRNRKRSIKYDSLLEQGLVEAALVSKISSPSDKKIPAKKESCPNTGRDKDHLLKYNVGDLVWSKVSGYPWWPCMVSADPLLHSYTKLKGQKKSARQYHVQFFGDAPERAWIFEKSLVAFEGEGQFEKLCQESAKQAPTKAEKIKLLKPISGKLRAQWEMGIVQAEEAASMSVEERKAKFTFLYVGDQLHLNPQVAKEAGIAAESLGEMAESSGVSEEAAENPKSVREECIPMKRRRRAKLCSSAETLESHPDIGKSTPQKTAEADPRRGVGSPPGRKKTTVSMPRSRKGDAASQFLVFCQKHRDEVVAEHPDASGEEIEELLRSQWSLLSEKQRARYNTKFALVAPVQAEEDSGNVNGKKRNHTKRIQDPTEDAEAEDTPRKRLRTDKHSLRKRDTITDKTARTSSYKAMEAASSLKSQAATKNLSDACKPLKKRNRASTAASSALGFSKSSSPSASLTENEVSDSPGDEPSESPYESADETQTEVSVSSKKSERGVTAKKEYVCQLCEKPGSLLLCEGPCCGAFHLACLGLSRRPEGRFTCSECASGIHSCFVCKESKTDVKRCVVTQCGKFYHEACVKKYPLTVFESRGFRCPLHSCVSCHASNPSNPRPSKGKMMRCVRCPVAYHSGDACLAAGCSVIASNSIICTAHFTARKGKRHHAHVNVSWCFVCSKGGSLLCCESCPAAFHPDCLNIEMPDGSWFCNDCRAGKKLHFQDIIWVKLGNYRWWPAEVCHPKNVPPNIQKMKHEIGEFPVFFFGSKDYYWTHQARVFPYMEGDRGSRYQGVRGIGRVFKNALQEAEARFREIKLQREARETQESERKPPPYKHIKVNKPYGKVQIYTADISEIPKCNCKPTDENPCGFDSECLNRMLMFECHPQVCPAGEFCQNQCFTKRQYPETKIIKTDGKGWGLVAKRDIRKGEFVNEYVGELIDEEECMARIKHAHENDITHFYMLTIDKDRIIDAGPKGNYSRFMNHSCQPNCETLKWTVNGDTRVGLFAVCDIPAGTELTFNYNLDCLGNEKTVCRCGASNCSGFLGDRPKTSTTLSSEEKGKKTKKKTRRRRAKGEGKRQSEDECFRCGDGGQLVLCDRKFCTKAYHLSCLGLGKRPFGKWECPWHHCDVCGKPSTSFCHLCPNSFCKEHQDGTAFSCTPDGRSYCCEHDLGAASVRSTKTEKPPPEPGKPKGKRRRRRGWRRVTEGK
Active and inactive are the calls of the source.

Examples with answers:
compound=CN1/C(=C\C(=O)COC(=O)c2ccc(O)c(O)c2)C(C)(C)c2ccccc21 result="> 20 µM (inactive)"
compound="CCN1CC2CCCC3(C1)C(=O)NC1(CCCCC1)N=C23 (stereo unspecified)" result="15 µM (active)"
compound=O=C1C=C(N2CCOCC2)c2ccccc2C1=O result="1.38 µM (active)"
compound=CN1c2cccc3cccc(c23)N(C)C1(C)C result="11.4 µM (active)"
compound=NCCc1c(-c2ccccc2)n(-c2ccccc2)c2ccccc12 result="> 20 µM (inactive)"

Turning to the following compound.
What measured AC50 is associated with COc1ccc(-c2ccc(C(c3c(C)n[nH]c3O)c3c(C)n[nH]c3O)o2)c([N+](=O)[O-])c1 on Histone-lysine N-methyltransferase NSD2 (Homo sapiens)? > 20 µM (inactive)

* * *

test system: INS1; experiment: beta cell apoptosis inhibitors, cytokine rescue, dose response, luminescence, retest (AID 449756); format: functional, cell-based; details: Rattus norvegicus;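 note: cell death triggered by IL-1 beta plus TNF-alpha plus IFN-gamma mixture; protective hits raise ATP signal compared with cytokine alone wells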
Activity calls are given as the source filed them.
Endpoint label: AC50

molecule="Cc1cc(C(=O)NC2CCCc3c2cnn3-c2cccc(C)c2C)n(C)n1 (centres undefined)" result="216 nM (active)"
molecule=Cc1nn(-c2ccccc2)c(O)c1/C=N/NC(=O)COc1ccccc1[N+](=O)[O-] result="3400 nM (active)"
molecule=Cc1nc2ccccc2n1-c1nc(-c2ccco2)cc(C(F)(F)F)n1 result="1440 nM (active)"

Turning to the following molecule.
Can you look up the measured AC50 of O=[N+]([O-])c1cc(CN2CCN(c3ccccc3)CC2)c(O)c2ncccc12 for me? 1170 nM (active)

* * *

test: HEp-2 cell cytotoxicity, dose response, cytotoxicity control for RSV inhibitor project, HTS (AID 2410); assay type: functional; conditions: human respiratory syncytial virus
Active and inactive are the calls of the source.
Endpoint label: CC50

Examples with answers:
sample_smiles=COC(=O)c1ccccc1N=Nc1c(O)n[nH]c1N endpoint_label=CC50 result="> 50 µM (active)"
sample_smiles=Cc1n[nH]c(O)c1C(c1ccc(-c2ccc(Cl)c(Cl)c2)o1)c1c(C)n[nH]c1O endpoint_label=CC50 result="15.2 µM (active)"

Can you look up the measured CC50 of O=c1cc(-c2ccncc2)oc2ccccc12 for me? 36.7 µM (active)

* * *

assay: cytotoxicity toward NIH3T3 fibroblasts, dose response, counter-screen, cell-based, ATP luminescence, mouse fibroblasts (AID 2010); format: functional;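 note: cells exposed to compound for about 90 hours before reading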
The source made the active and inactive calls.
Endpoint label: EC50

Examples with answers:
molecule=O=[N+]([O-])c1cc(CN2CCN(c3ccccc3)CC2)c(O)c2ncccc12 result="0.809 µM (active)"
molecule=CC(=O)NCCC(=O)Nc1nc(-c2ccc3ccccc3c2)cs1 result="> 60 µM (not active)"
molecule="COc1ccc(CCn2c(=N)c(C(=O)NCC3CCCO3)cc3c(=O)n4cccc(C)c4nc32)cc1 (stereo unspecified)" result="> 30 µM (not active)"

Can you look up the measured EC50 of CN1Cc2c(N3CCOCC3)nc(SCc3ccccc3)c(C#N)c2CC1(C)C for me? > 60 µM (not active)

Can you look up the measured EC50 of CCOC(=O)CNc1nc(C(C)(C)C)nc2c1nnn2Cc1ccccc1Cl for me? > 60 µM (not active)

Can you look up the measured EC50 of COc1ccc(OC)c2sc(N3CCN(C(=O)c4ccc([N+](=O)[O-])s4)CC3)nc12 for me? > 60 µM (not active)

Can you look up the measured EC50 of Cc1c(NC(=O)CSc2cccc3cccnc23)c(=O)n(-c2ccccc2)n1C for me? > 30 µM (not active)

Can you look up the measured EC50 of Cc1ccc(Cl)cc1N=C(S)N(Cc1ccccc1)Cc1cccnc1 for me? > 60 µM (not active)

Can you look up the measured EC50 of Cc1cc(N2CCN(C)CC2)ccc1NC(=O)c1ccc(-c2ccc(Cl)cc2)o1 for me? 9.64 µM (active)

Can you look up the measured EC50 of CCOC(=O)c1cc(C#N)c(N2CCN(C)CC2)nc1-c1ccccc1 for me? > 60 µM (not active)

Can you look up the measured EC50 of Cc1oc(-c2ccccc2Cl)nc1CN1CCCCC1c1cccnc1 (stereo unspecified) for me? > 60 µM (inconclusive)

* * *

biological target: Corticotropin-releasing factor receptor 2/Corticotropin-releasing factor-binding protein (Homo sapiens, UniProt P24387+Q13324); assay: Dose Response confirmation of uHTS hits for small molecule antagonists of the CRF-binding protein and CRF-R2 receptor complex.; type: functional; settings: read-out: IC50_Mean
Sequence (Q13324 whole entry): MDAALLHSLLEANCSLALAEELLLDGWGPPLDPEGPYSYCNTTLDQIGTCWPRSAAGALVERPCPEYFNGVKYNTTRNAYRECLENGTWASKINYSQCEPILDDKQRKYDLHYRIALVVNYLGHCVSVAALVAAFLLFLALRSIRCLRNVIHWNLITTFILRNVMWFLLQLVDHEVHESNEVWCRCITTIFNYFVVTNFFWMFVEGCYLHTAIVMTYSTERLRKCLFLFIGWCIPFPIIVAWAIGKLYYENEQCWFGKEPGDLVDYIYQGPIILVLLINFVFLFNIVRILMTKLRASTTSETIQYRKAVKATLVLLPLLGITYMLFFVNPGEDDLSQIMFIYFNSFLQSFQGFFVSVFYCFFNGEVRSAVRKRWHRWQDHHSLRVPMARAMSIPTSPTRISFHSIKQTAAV
Sequence (P24387 whole entry): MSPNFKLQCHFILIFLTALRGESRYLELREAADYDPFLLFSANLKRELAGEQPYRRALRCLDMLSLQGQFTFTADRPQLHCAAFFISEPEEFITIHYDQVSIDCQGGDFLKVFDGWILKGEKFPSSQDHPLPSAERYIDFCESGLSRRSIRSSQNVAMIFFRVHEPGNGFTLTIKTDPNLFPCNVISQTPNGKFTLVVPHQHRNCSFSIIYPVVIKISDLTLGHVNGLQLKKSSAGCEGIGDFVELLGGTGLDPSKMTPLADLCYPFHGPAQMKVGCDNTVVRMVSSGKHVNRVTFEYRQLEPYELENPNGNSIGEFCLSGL
Calls of active or inactive are those of the source.
Bench note: report the call from label 1 (active), label 0 (inactive)

compound=CCOC(=O)c1c(C)[nH]c(C(=O)OCC(=O)Nc2sc(C(=O)N(C)C)c(C)c2C(=O)OCC)c1C category="label 0"
compound=CC(C)CSc1nnc2[nH]c(=O)cc(N)n12 category="label 0"
compound=COc1ccc(Cl)cc1Nc1nc(NCCO)nc(N2CCCCC2)n1 category="label 0"
compound=CN(CC(=O)Nc1ccc2c(c1)OCCO2)CC(=O)Nc1ccc(F)c(F)c1F category="label 0"

Name the outcome recorded for CSc1ccc(CCNC(=O)c2ccc(C[S+]([O-])Cc3ccc(Cl)cc3)o2)cc1 (stereo not given) in the assay. label 0

* * *

Entries and their AC50
test: P. falciparum Dd2 growth inhibitors, dose response, SYBR Green, cherry-picked samples (AID 1159567); format: functional, cell-based
The source made the active and inactive calls.

sample_smiles=N#Cc1ccc(-c2ccc([C@H]3[C@@H]4CN(C(=O)C5CCCCC5)C[C@H]3N4)cc2)cc1 result="2200 nM (active)"
sample_smiles=COc1ccc(NC(=O)N(C)C[C@H]2Oc3cc(-c4ccc(C)cc4)ccc3S(=O)(=O)N([C@H](C)CO)C[C@@H]2C)cc1 result="4830 nM (active)"
sample_smiles=COc1ccccc1CN1C[C@@H]2N[C@H](C1)[C@@H]2c1ccc(-c2ccc(C#N)cc2)cc1 result="2360 nM (active)"
sample_smiles=COc1ccc2c3c([nH]c2c1)[C@H](CO)N(C(=O)Nc1ccc(F)cc1)CC31CCN(S(=O)(=O)c2ccccc2)CC1 result="909 nM (active)"

Turning to the following compound.
Can you look up the measured AC50 of C[C@H]1CN([C@@H](C)CO)C(=O)c2c(c3ccccc3n2C)-c2ccccc2CO[C@H]1CN(C)S(=O)(=O)c1ccc(Cl)cc1 for me? 396 nM (active)
